Test: in vitro
Conditions: human, hela cells, % viability
Doc: threshold 90% (exclusive). Items with viability at 28.5 h, 10 µM beneath it return Condition met; others return Condition not met.

Does CC1(C)Sc2nc3ccccc3n2C1=O have viability at 28.5 h, 10 µM strictly under 90%?
Condition met

And O=C(CCOc1ccccc1)Nc1c(F)cc(F)cc1OC1CCNCC1 [CBK045897T] ?
Condition not met

Same thing, different molecule: COc1ccc(C(NC(=O)Cn2cccnc2=O)C2CC(O)C2)cn1 (stereo not drawn)
Condition met

What do you get for C=CCOc1ccc2ccccc2c1CNc1nn[nH]n1 ?
Condition not met

Same question for O=c1ccc2c(-c3ccccc3)ccnc2[nH]1 please.
Condition not met

Now give it for CCC1CCCCN1C(=O)c1cccc(C)c1C (stereo not drawn) too.
Condition not met

// next record CC(CC(=O)N1CCCC(c2cc3cccnc3[nH]2)C1)n1cccn1 (stereo not drawn)
Condition met

Now the same for N#Cc1cc(CN2CCCN(S(=O)(=O)c3ccc(C(F)(F)F)cc3Cl)CC2)ccc1F
Condition not met

Further, for O=C(O)CCN1C(=O)c2ccc(NC(=O)Cc3cccs3)cc2C1=O ?
Condition not met

Next molecule: CS(=O)(=O)N1CCN(c2ccccc2NC(=O)c2cccnc2)CC1
Condition not met

Here is the next molecule: O=C(NC(Cc1ccccc1)C(O)c1nccs1)C1CC=CCC1 (stereo not drawn)
Condition not met

Next record, please: CCCCn1c(S)nc2c(-c3ccccc3)c[nH]c2c1=O
Condition not met

Subsequent entry: CC(=O)NC1(c2ccc(F)cc2)CCN(C(=O)C2CCCCC2)CC1
Condition not met

Query c1ccc2[nH]c(SCCCCCSc3nc4ccccc4[nH]3)nc2c1 next
Condition not met

Subsequent entry: COC(=O)c1ccc(NC(=O)C2Cc3ccccc3CN2S(=O)(=O)c2cccs2)cc1 (stereo not drawn)
Condition not met

Thanks! And O=C([C@@H]1C[C@@H](O)[C@H](O)[C@@H]2NC(=S)N(c3ccc4c(c3)OCO4)[C@@H]21)N1CCCCC1 ?
Condition met

Same again, this time with CCc1ccc(CNC(=O)Cn2nnnc2-c2ccc(CN3CCC(C)CC3)cn2)cc1 [CBK153930C]
Condition met

Ok, now CCN(CC)CCN(C)Cc1ccccc1Br
Condition not met

And what about the molecule Cc1cc(C)c2c(CC(=O)NNC(=O)COc3ccccc3)coc2c1 ?
Condition not met

Next entry: CC(C)CC(=O)N1CCC(n2c(=O)oc3ccc(Cl)cc32)CC1
Condition not met

Similarly, O=[N+]([O-])c1ccc(Cc2cc[n+](-c3nc4ccccc4nc3[N-]S(=O)(=O)c3ccc([N+](=O)[O-])cc3)cc2)cc1 ?
Condition met

Also check O=S(=O)(c1ccc(-c2ccc(S(=O)(=O)N3CCOCC3)cc2)cc1)N1CCOCC1
Condition not met

Record: CCCn1c(O)nnc1-c1cccnc1
Condition met

How about this molecule: CCNc1cncc(-c2ccccc2)n1
Condition met

For Cc1nnc(SCc2cc(=O)nc(NC(=N)Nc3cccc(Cl)c3)[nH]2)s1 then?
Condition met

Please answer likewise for CN(C)CCN(C)C(=O)Cc1csc(-c2ccccc2F)n1
Condition not met

Try this molecule too: C[C@@H]1CN2CCCC2CN1Cc1ccc(F)cc1F (stereo partly drawn)
Condition not met

----------
Assay: in vitro
Settings: human, hela cells, % viability
Assignment: determine reported viability at 28.5 h, 10 µM for the given compounds.
Provide only the numeric value, understood in %.

Would you mind telling me what viability at 28.5 h, 10 µM value was observed for Cc1cc(NS(=O)(=O)c2ccc(OCCNS(C)(=O)=O)cc2)no1 [CBK268530] ?
102

Then CN1CCCC(NC(=O)c2cc(-c3cccs3)no2)C1 (stereo not shown) [CBK282564] ?
87.2

And for Cc1ccc(CNC(=O)COc2ccc(S(=O)(=O)N3CCOCC3)cc2)cc1 [CBK269816] ?
87.8

And for CCCn1c(C)cc2cc(NC(=O)Cn3ccnc3)ccc21 [CBK281549] ?
92.4

Follow-up item: O=C(O)c1ccc(CNCCN2CCOCC2)cc1 [CBK287223]
101

Follow-up entry: O=C(CCn1cnc2ccccc2c1=O)Nc1ccc(S(=O)(=O)N2CCOCC2)cc1 [CBK267645]
98.9

COc1ccc(NS(=O)(=O)c2ccc(N3CCCC3=O)cc2)cn1 [CBK270216] ?
84.9

What about this compound? Cc1nn(C)c(C)c1CN1CCOC(c2nc(C(C)(C)C)cs2)C1 (stereo not shown) [CBK304170]
85.6

Consider next the compound O=C(O)C(Cc1c[nH]cn1)N1C(=O)C2CC=C(Cl)CC2C1=O (stereo not shown) [CBK286871] in the same way.
92.4

And CCOc1ccc(NC(=O)N(CCO)Cc2nccn2C)cc1C#N [CBK307634] ?
82.6

----------
Task for the reader: assign each of the following molecules its reported viability at 28.5 h, 10 µM.
Assay: in vitro
Settings: human, hela cells, % viability
Write the number in % without appending the unit.

Please report the recorded viability at 28.5 h, 10 µM for Cc1ccccc1C(=O)N/N=C/c1ccc(Sc2nnnn2-c2ccccc2)o1 [CBK263259] .
114

Now give it for O=C(O)c1ccc(Br)c(S(=O)(=O)Nc2ccc(Cl)cc2)c1 [CBK263247] too.
98

Repeat for the following molecule: Cc1nc(-c2ccc(NC(=O)CC(C)n3cccn3)cc2)cs1 (centres unmarked) [CBK281403]
98.4

And the next one, CCN(CC)C(=O)c1ccc(-n2ccnc2)c(-n2cccc2)c1 [CBK285371] ?
86.3

Same question, COc1cc(OC)nc(NC(=O)CN2CCN(c3ccc(F)cc3)CC2)n1 [CBK267259] this time
96.5

Entry CC(=O)c1ccccc1OCCOCCN1CCCC(C)C1 (centres unmarked) [CBK269625C] please
106

Would you mind doing O=C(O)CN(CC(=O)Nc1ccc(Cl)cc1)Cc1ccccc1 [CBK286585] as well?
85.5

Same again, this time with Cc1ccc(SCCN2CCNCC2)cc1 [CBK266045G]
99.6

Okay, and Cc1c(C(=O)N(C)Cc2nc3ccccc3s2)nnn1C1CCNCC1 [CBK306501C] ?
85.9

How about this molecule: COc1ccc2[nH]cc(C(C(=O)O)N3CCN(Cc4ccccn4)CC3)c2c1 (centres unmarked) [CBK286846]
80.5

What about CC(C)Cc1ccc(S(=O)(=O)Nc2ccc(C(=O)O)cc2)cc1 [CBK297930] ?
98.4

// next record COc1cccc(CCNC2CC(=O)N(c3ccc(NC(C)=O)cc3)C2=O)c1 (centres unmarked) [CBK265233]
109

Now give it for CNc1nc(N)nc(OCC(F)(F)F)n1 [CBK028082] too.
89.4

Would you mind doing N#Cc1ccc(CNC2(Cc3cc(CO)on3)COC2)cc1 [CBK289647] as well?
104

Then this molecule: Cc1ccc(-c2nccnc2OCCN2C(=O)c3ccccc3C2=O)c(C)c1 [CBK106981]
90

Then S=c1[nH]nc2ccc(N3CCOCC3)nn12 [CBK008327] ?
101

Request: c1ccc(SCc2csc(-c3ccc4c(c3)OCO4)n2)nc1 [CBK270294]
87.7

// query: Cc1ccc(C2N(Cc3ccccc3)CCN2Cc2ccccc2)o1 [CBK260883]
98.3

And C[C@@H](Cn1c(=O)oc2ccccc21)NC(=O)Cc1c[nH]c2ccccc12 [CBK284534] ?
85.7

Please do the same for Cc1cccc(C)c1NC(=O)C(C)Sc1nc2ccccc2c(=O)n1CC1CCCO1 (centres unmarked) [CBK068151] as well.
95

Would you kindly repeat that for COc1ccccc1-c1cc([C@H]2CN3CC[C@H]2C[C@@H]3CNC(=O)c2ccco2)nc(C)n1 [CBK289119] ?
105

And then CCNC(=O)C1(Cc2ccc(-c3cccs3)cc2)CCN(C(=O)c2ccccc2)CC1 [CBK285794] , what is it?
94.5

Another: Cc1ccccc1-c1cnc(N)c(-c2ccc(O)cc2)n1 [CBK115544]
95

Follow-up item: CC(C)CC(Nc1ncnc2c1oc1ccccc12)C(=O)O (centres unmarked) [CBK293974]
100

Follow-up entry: COc1cccc2cc(C(=O)NCCN3CCOCC3)oc12 [CBK149807]
101

Same lookup for Cc1cc2cn([C@@H]3O[C@H](CO)[C@H](O)C3O)c(=O)nc2[nH]1 (some centres unmarked) [CBK201219] , please.
98

Repeat for the following molecule: CS(=O)(=O)N(CC(=O)N1CCN(Cc2ccc3c(c2)OCO3)CC1)c1cccc(C(F)(F)F)c1 [CBK265329]
77.7

And Cc1ccc(CCCC(=O)N2CCc3c([nH]c4c(C)cccc34)C23CCN(Cc2ccc(F)cc2)C3)cc1 (centres unmarked) [CBK066979] ?
99.2

Same again, this time with O=C(c1cncnc1)N1CCC(Cc2ccccc2)CC1 [CBK200212]
92.8

Check N#Cc1ccc(-c2csc(NC(=O)c3ccc(Cl)s3)n2)cc1 [CBK287321] too.
100

Ok, now Cc1cc(C)cc(NC(=O)c2ccccc2NS(=O)(=O)c2ccc(F)c(F)c2F)c1 [CBK113886]
89.1

How about CCOc1ccc(S(=O)(=O)N(C)CC(=O)N2CCN(C)CC2)cc1 [CBK269953] ?
93.8

Record: CNC(=O)c1sc2ccccc2c1C1CCN(Cc2cnc(-c3ccc(C)cc3)nc2)C1 (centres unmarked) [CBK285883]
108

Entry CC(C)c1ccc(C2C(C(=O)c3ccco3)=C(O)C(=O)N2CCCN(C)C)cc1 (centres unmarked) [CBK264549] please
94.8

Param item: O=C(c1cccc(-c2cc3ccccc3oc2=O)c1)N1CCN(c2ccc([N+](=O)[O-])cc2Cl)CC1 [CBK269704]
101

Also need CCNc1nc2c(c(=O)[nH]c(=O)n2C)n1CCCc1ccccc1 [CBK269243] , thanks.
94.6

Another molecule to look at: Cc1cccc(-c2cncc(C3CCCN(C(=O)Cc4c[nH]c5ccccc45)C3)n2)c1 (centres unmarked) [CBK286149]
84.1

How about C=CCn1c(SCc2nnc(-c3ccccc3)o2)nnc1C(O)c1ccccc1 (centres unmarked) [CBK267368] ?
110
